Assayed System: T1, human CD112R on Jurkat CD112R effector cells (human, UniProt Q6DKI7 1-326)
T1 sequence (looked up): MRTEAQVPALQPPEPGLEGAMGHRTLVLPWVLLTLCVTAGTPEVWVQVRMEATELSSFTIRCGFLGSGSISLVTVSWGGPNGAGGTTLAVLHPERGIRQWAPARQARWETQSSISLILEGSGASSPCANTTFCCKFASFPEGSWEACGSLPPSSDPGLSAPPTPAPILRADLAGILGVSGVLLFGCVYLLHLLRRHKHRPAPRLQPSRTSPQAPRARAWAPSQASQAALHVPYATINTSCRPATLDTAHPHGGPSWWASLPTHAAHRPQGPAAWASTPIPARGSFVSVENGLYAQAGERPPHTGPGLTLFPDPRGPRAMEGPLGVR
Assay Comment: cell-based or functional assay
Recorded Relative activity (%), EC50 COM701/EC50 antibody by entry
API: value field is a number in %; no unit string.

Example entries begin here.
>  <Binder>
Hu27 (antibody, IgG4, V domains shown, humanized IgG4) VH: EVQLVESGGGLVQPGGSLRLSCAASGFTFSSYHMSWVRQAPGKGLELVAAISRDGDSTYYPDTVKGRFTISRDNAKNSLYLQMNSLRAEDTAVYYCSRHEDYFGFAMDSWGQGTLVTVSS VL: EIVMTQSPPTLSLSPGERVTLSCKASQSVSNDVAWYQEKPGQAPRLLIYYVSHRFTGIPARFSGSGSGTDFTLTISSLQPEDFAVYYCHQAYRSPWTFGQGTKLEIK

>  <Result>
217

$$$$
>  <Binder>
Hu1 (antibody, IgG4, V domains shown, humanized IgG4; also called Hu-01) VH: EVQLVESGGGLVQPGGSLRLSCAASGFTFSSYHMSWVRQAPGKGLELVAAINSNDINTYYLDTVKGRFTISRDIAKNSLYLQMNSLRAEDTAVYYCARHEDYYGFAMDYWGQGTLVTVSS VL: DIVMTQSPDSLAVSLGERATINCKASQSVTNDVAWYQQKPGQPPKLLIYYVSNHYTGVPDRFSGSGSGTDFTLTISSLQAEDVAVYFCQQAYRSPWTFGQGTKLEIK

>  <Result>
92

$$$$

Q: Dear colleague, I am looking for the recorded Relative activity (%), EC50 COM701/EC50 antibody of the following binder: Hu31 (antibody, IgG4, V domains shown, humanized IgG4) VH: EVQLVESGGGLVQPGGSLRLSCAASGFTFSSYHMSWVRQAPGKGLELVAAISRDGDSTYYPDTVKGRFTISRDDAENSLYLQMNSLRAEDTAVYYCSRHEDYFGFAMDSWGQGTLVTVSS VL: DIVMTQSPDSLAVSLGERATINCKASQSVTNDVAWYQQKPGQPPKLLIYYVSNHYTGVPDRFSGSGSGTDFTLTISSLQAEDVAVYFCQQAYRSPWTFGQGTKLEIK
Result: 110
